system: Klebsiella pneumoniae ATCC 700603
measurement-kind: MIC (µM)

>  <compound>
CC[C@H](C)[C@H](NC(=O)[C@H](CCCN=C(N)N)NC(=O)[C@H](CCCCN)NC(=O)[C@H](Cc1ccccc1)NC(=O)[C@H](Cc1c[nH]c2ccccc12)NC(=O)CN)C(=O)N[C@@H](CCCCN)C(=O)N[C@H](C(=O)N[C@@H](Cc1ccccc1)C(=O)N[C@@H](Cc1c[nH]c2ccccc12)C(N)=O)[C@@H](C)O [GWFKRIKTFW]

>  <tested-on>
Klebsiella pneumoniae ATCC 700603

>  <operator-symbol>
=

>  <recorded-number>
32

$$$$
>  <compound>
NC(N)=NCCC[C@H](NC(=O)[C@H](Cc1cnc[nH]1)NC(=O)[C@H](CO)NC(=O)[C@H](CCCN=C(N)N)NC(=O)[C@H](CCCN=C(N)N)NC(=O)[C@H](CS)NC(=O)[C@H](CCCN=C(N)N)NC(=O)[C@H](Cc1cnc[nH]1)NC(=O)[C@H](Cc1cnc[nH]1)NC(=O)[C@@H](N)CO)C(=O)N[C@@H](CS)C(=O)O [SHHRCRRSHRC]

>  <tested-on>
Klebsiella pneumoniae ATCC 700603

>  <operator-symbol>
>

>  <recorded-number>
22.3

$$$$
>  <compound>
NCCCC[C@H](NC(=O)[C@H](CCCCN)NC(=O)[C@H](Cc1c[nH]c2ccccc12)NC(=O)[C@H](CCCN=C(N)N)NC(=O)[C@H](CCCCN)NC(=O)[C@H](Cc1c[nH]c2ccccc12)NC(=O)[C@H](Cc1c[nH]c2ccccc12)NC(=O)[C@@H](N)CCCCN)C(=O)N[C@@H](Cc1c[nH]c2ccccc12)C(=O)N[C@@H](Cc1c[nH]c2ccccc12)C(N)=O [KWWKRWKKWW]

>  <tested-on>
Klebsiella pneumoniae ATCC 700603

>  <operator-symbol>
=

>  <recorded-number>
16

$$$$
>  <compound>
CC(C)C[C@H](NC(=O)[C@H](C)NC(=O)[C@H](CCCCN)NC(=O)[C@H](CC(C)C)NC(=O)[C@H](CC(N)=O)NC(=O)[C@@H](N)CC(C)C)C(=O)N[C@@H](CC(C)C)C(=O)N[C@@H](C)C(=O)N[C@H](C(=O)N[C@@H](C)C(=O)N[C@@H](CCCCN)C(N)=O)C(C)C [LNLKALLAVAK]

>  <tested-on>
Klebsiella pneumoniae ATCC 700603

>  <operator-symbol>
>

>  <recorded-number>
128

$$$$
>  <compound>
CC[C@H](C)[C@H](N)C(=O)N[C@H](C(=O)N[C@H](C(=O)N[C@@H](CCCCN)C(=O)N[C@@H](CO)C(=O)N[C@@H](CC(C)C)C(=O)NCC(=O)N[C@@H](CCCCN)C(=O)N[C@@H](Cc1ccccc1)C(=O)N[C@@H](CC(C)C)C(=O)N[C@@H](CCCCN)C(=O)N[C@@H](CC(N)=O)C(=O)N[C@H](C(=O)NCC(=O)NCC(=O)N[C@@H](Cc1ccccc1)C(=O)N[C@@H](C)C(=O)NCC(=O)O)C(C)C)[C@@H](C)CC)C(C)C [IVIKSLGKFLKNVGGFAG]

>  <tested-on>
Klebsiella pneumoniae ATCC 700603

>  <operator-symbol>
>

>  <recorded-number>
64

$$$$
>  <compound>
NC(=O)[C@H](Cc1c[nH]c2ccccc12)NC(=O)[C@H](Cc1c[nH]c2ccccc12)NC(=O)[C@H](CCCN=C(N)N)NC(=O)[C@H](Cc1c[nH]c2ccccc12)NC(=O)[C@H](Cc1c[nH]c2ccccc12)NC(=O)[C@H](Cc1c[nH]c2ccccc12)NC(=O)[C@H](CCCN=C(N)N)NC(=O)[C@H](Cc1c[nH]c2ccccc12)NC(=O)[C@@H](N)Cc1c[nH]c2ccccc12 [WWRWWWRWW]

>  <tested-on>
Klebsiella pneumoniae ATCC 700603

>  <operator-symbol>
=

>  <recorded-number>
32

$$$$
>  <compound>
C[C@H](NC(=O)[C@H](C)NC(=O)[C@@H](NC(=O)[C@H](CCCCN)NC(=O)[C@H](C)NC(=O)[C@H](CCCN=C(N)N)NC(=O)[C@H](CCCCN)NC(=O)[C@H](C)NC(=O)[C@H](C)NC(=O)CN)[C@@H](C)O)C(N)=O [GAAKRAKTAA]

>  <tested-on>
Klebsiella pneumoniae ATCC 700603

>  <operator-symbol>
>

>  <recorded-number>
512

$$$$
>  <compound>
CC(=O)N[C@@H](Cc1ccccc1)C(=O)N[C@@H](CCCCN)C(=O)N[C@@H](CCCCN)C(=O)N[C@@H](CC(C)C)C(=O)N[C@@H](CCCCN)C(=O)N[C@@H](CCCCN)C(=O)N[C@@H](CC(C)C)C(=O)N[C@@H](Cc1ccccc1)C(=O)N[C@@H](CO)C(=O)N[C@@H](CCCCN)C(=O)N[C@@H](CC(C)C)C(=O)N[C@@H](CCCCN)C(=O)N[C@@H](CC(N)=O)C(=O)N[C@@H](Cc1c[nH]c2ccccc12)C(=O)N[C@@H](Cc1c[nH]c2ccccc12)C(N)=O [FKKLKKLFSKLKNWW]

>  <tested-on>
Klebsiella pneumoniae ATCC 700603

>  <operator-symbol>
=

>  <recorded-number>
3.2

$$$$
>  <compound>
CC(C)C[C@H](NC(=O)[C@H](CCCN=C(N)N)NC(=O)[C@H](Cc1c[nH]c2ccccc12)NC(=O)[C@H](Cc1c[nH]c2ccccc12)NC(=O)[C@H](Cc1c[nH]c2ccccc12)NC(=O)[C@H](CCCN=C(N)N)NC(=O)[C@@H](N)CC(C)C)C(N)=O [LRWWWRL]

>  <tested-on>
Klebsiella pneumoniae ATCC 700603

>  <operator-symbol>
=

>  <recorded-number>
32

$$$$
>  <compound>
CC(C)C[C@H](NC(=O)[C@H](CCCN=C(N)N)NC(=O)[C@H](CCCN=C(N)N)NC(=O)[C@H](Cc1c[nH]c2ccccc12)NC(=O)[C@H](Cc1c[nH]c2ccccc12)NC(=O)[C@H](Cc1c[nH]c2ccccc12)NC(=O)[C@H](CCCN=C(N)N)NC(=O)[C@H](CCCN=C(N)N)NC(=O)[C@@H](N)CC(C)C)C(N)=O [LRRWWWRRL]

>  <tested-on>
Klebsiella pneumoniae ATCC 700603

>  <operator-symbol>
=

>  <recorded-number>
32

$$$$
>  <compound>
C[C@@H](O)[C@@H]1NC(=O)CNC(=O)[C@H](CCCCN)NC(=O)[C@H](Cc2ccccc2)NC(=O)[C@@H](NC(=O)[C@H](Cc2ccccc2)NC(=O)[C@@H](N)CCCN=C(N)N)CSSC[C@@H](C(=O)NCC(=O)O)NC(=O)[C@@H]2CCCN2C1=O [RFCFKGTPCG]

>  <tested-on>
Klebsiella pneumoniae ATCC 700603

>  <operator-symbol>
=

>  <recorded-number>
17.9

$$$$
>  <compound>
CC[C@H](C)[C@H](NC(=O)[C@@H]1CCCN1C(=O)[C@@H]1CCCN1C(=O)[C@H](CCCN=C(N)N)NC(=O)[C@H](Cc1ccccc1)NC(=O)[C@@H](N)CCCN=C(N)N)C(=O)N[C@@H](CCCN=C(N)N)C(=O)N[C@@H](CCCN=C(N)N)C(=O)N1CCC[C@H]1C(=O)N1CCC[C@H]1C(=O)N[C@H](C(=O)N[C@@H](CCCN=C(N)N)C(=O)N1CCC[C@H]1C(=O)N1CCC[C@H]1C(=O)N[C@@H](Cc1ccccc1)C(=O)O)[C@@H](C)CC [RFRPPIRRPPIRPPF]

>  <tested-on>
Klebsiella pneumoniae ATCC 700603

>  <operator-symbol>
>

>  <recorded-number>
64

$$$$
